test system: hypoxia-inducible endogenous VEGF expression in HeLa cells; assay: Hypoxia-inducible endogenous VEGF expression, VEGF ELISA of conditioned media (dose-response EC50); type: cell-based; conditions: Homo sapiens, HeLa cells, hypoxic conditions (1% O2)
pEC50: −log10 of the molar value.
Below is a list of entries, each paired with its recorded pEC50 value.

| COMPOUND | pEC50 |
| --- | --- |
| O=C(Oc1ccc(F)cc1)N1CCc2c([nH]c3ccc(Cl)cc23)C1c1ccc(OCCCCCl)cc1 (stereo not drawn) | > 8.10 |
| CCOC(=O)N1CCc2c([nH]c3ccc(Br)cc23)C1c1ccc(C(=O)N2CCN(CC)CC2)cc1 (stereo not drawn) | > 8.10 |

Shift focus to the following entry.
Indicate its recorded pEC50; the compound in question is O=C(Oc1ccc(Cl)cc1)N1CCc2c([nH]c3ccc(Cl)cc23)C1c1ccc(OCC(O)CN2CCCC2)cc1 (stereo not drawn)
7.40 to 8.10

// provenance: patent US8076352B2
